# target.entity: T1, CD137-hisFc fusion protein (Sino Biological Cat 10041-H03H) (human, UniProt Q07011 24-186)
# T1 construct: Bought; also called recombinant human CD137 (fused with human Fc and His tag); not shown: His tag and human Fc
# method: BLI Octet, Fab;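 further: fab fragments expressed in E. coli, binding to human CD137 measured on Octet RED96, kinetics fitted with a 1:1 Langmuir model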
Listed here are binders together with their documented pKd.
Bear in mind: pKd is minus log10 of a mol/L concentration; give just that figure.

binder	pKd
Fab 5299 (Fab, V domains shown, Fab from E. coli; also called VH11/VL11) VH: EVQLVESGGGLVQPGGSLRLSCAASGYSISSGHYWGWIRQAPGKGLEWLALIDWYGDKYYSTSLKSRLTISRDNSKNTLYLQLNSLRAEDTAVYYCARSDYYGSHFDYWGQGTLVTVSS VL: DIQLTQSPSSLSASVGDRVTITCRASESVDFDGFSFLAWYQQKPGKAPKLLIYDASNLETGVPSRFSGSGSGTDFTLTISSLQPEDFATYYCQQYDTLPRTFGQGTKVEIKR	7.85
Fab 5408 (Fab, V domains shown, Fab from E. coli; also called VH36/VL36) VH: EVQLVESGGGLVQPGGSLRLSCAASGYSITSGYHWSWIRQAPGKGLEWVSSISGYGDTTYYADSVKGRFTISRDNSKNTLYLQLNSLRAEDTAVYYCAREGSDTVLGDWFAYWGQGTLVTVSS VL: DIQLTQSPSSLSASVGDRVTITCQASQDIRTYLAWYQQKPGKAPKLLIYDASNLETGVPSRFSGSGSGTDFTLTISSLQPEDFATYYCQQGYSIWTFGQGTKVEIKR	7.62
Fab 5316 (Fab, V domains shown, Fab from E. coli; also called VH17/VL17) VH: EVQLVESGGGLVQPGGSLRLSCAASGYSISSGYHWAWIRQAPGKGLEWVSSISGDGSSTYYADSVKGRFTISRDNSKNTLYLQLNSLRAEDTAVYYCAREGSDAVTGDWFAYWGQGTLVTVSS VL: DIQLTQSPSSLSASVGDRVTITCRASQGVGTYLAWYQQKPGKAPKLLIYDASSLESGVPSRFSGSGSGTDFTLTISSLQPEDFATYYCQQGYSLWTFGQGTKVEIKR	7.96
Fab 4217 (Fab, V domains shown, Fab from E. coli; also called VH10/VL10) VH: EVQLVESGGGLVQPGGSLRLSCAASGYSISSGYYWDWIRQAPGKGLEWVSSISGDGDTTYYADSVKGRFTISRDNSKNTLYLQLNSLRAEDTAVYYCAREYYGYGYALDYWGQGTLVTVSS VL: DIQLTQSPSSLSASVGDRVTITCRASQGISSYLAWYQQKPGKAPKLLIYDASSLESGVPSRFSGSGSGTDFTLTISSLQPEDFATYYCQQYYSTPLTFGQGTKVEIKR	7.01

Data point: Fab 5360 (Fab, V domains shown, Fab from E. coli; also called VH28/VL28) VH: EVQLVESGGGLVQPGGSLRLSCAASGYSITSGHYWNWIRQAPGKGLEWVSGISGDGSSTYYADSVKGRFTISRDNSKNTLYLQLNSLRAEDTAVYYCARGGSDAVLGDWFAYWGQGTLVTVSS VL: DIQLTQSPSSLSASVGDRVTITCRASQSISSYLAWYQQKPGKAPKLLIYDASNLETGVPSRFSGSGSGTDFTLTISSLQPEDFATYYCQQGYSTWTFGQGTKVEIKR ; pKd = 7.62
